- EXPERIMENTAL PROTOCOL: Plasma protein binding in mouse
- Format: ADME, cell-free
- CONDITIONS USED: read-out: PPB (converted)
# fraction unbound per entry

Some compounds with recorded fraction unbound:
Name the recorded fraction unbound for O=c1c2nc([N+](=O)[O-])cn2ccn1Cc1cccc(OC(F)(F)F)c1 . < 0.01

Now the compound O=c1c2nc([N+](=O)[O-])cn2ccn1Cc1ccc(OC(F)(F)F)cc1 < 0.01

# ---- query compound ----
Fill in: fraction unbound of O=c1c2nc([N+](=O)[O-])cn2ccn1Cc1cccc(C(F)(F)F)c1 is ___ 0.08

###

- EXPERIMENTAL PROTOCOL: Clearance in CD-1 mouse at 10 mg/kg, iv measured upto 48 hrs by LC/MS/MS analysis
- Type: ADME, organism-based
- CONDITIONS USED: in vivo
ENDPOINT NAME: clearance (mL/min/kg)
Report the figure in mL/min/kg without appending any unit label.

State the recorded clearance for this entry: O=[N+]([O-])c1cn2c(n1)OC[C@@H](OCc1ccc(OC(F)(F)F)cc1)C2 [PRETOMANID] 12.1
